Test system: OVCAR-3 ovarian
Test Name: NCI tumour cell line growth inhibition, 48 h
Reported Metric: TGI

I have this compound here, COc1cc(C2SCC(=O)N2c2ccccc2Cl)cc(OC)c1OC (stereo not drawn) , and I need its recorded TGI.
> 100 µM

I have this compound here, C/C1=C/C(C)CC(C)OC(=O)C(C)NC(=O)C(Cc2ccc(O)c(I)c2)N(C)C(=O)CNC(=O)C(C)C1 (stereo not drawn) , and I need its recorded TGI.
< 0.01 µM

I have this compound here, O=C(Nc1ccc(Cl)cc1Cl)C(=O)Nn1c(=S)[nH]c2ccccc2c1=O , and I need its recorded TGI.
> 100 µM

* * *

Provide the reported TGI of each item.
Test system: SN12C renal
Test Name: NCI tumour cell line growth inhibition, 48 h
Where a SMILES comes first, the peptide text is derived from it. [ ]: non-standard residue; d: D form. Ac5c = NC1(C(=O)O)CCCC1

I have this compound here, Cc1ccc2nc(CN3CCCC(O)C3)cc(=O)n2c1 (stereo not drawn) , and I need its recorded TGI.
> 100 µM

I have this compound here, COc1ccc([N+](=O)[O-])c2c(NCCCN(C)C)c3ccccc3nc12 , and I need its recorded TGI.
1.43 µM

I have this compound here, COC(=O)c1cc2c(cc1Cl)SC(N(N(C)C)S(=O)(=O)c1ccc(Br)s1)=NS2(=O)=O , and I need its recorded TGI.
> 100 µM

I have this compound here, COc1cc(S(=O)(=O)Nc2nc(-c3ccc(N4C(=O)C(CC(=O)O)SC4c4ccccc4O)cc3)cs2)ccc1Cl (stereo not drawn) , and I need its recorded TGI.
> 100 µM

I have this compound here, Cc1csc2nc3c(cnn3C)c(=S)n12 , and I need its recorded TGI.
> 100 µM

I have this compound here, CCOC(=O)c1cc(C#N)c(=O)n(/N=C(\C)c2ccncc2)c1O , and I need its recorded TGI.
> 100 µM

I have this compound here, Cc1[nH]c2ccccc2c1C1Cc2ccccc2N1C(=O)/C=C\C(=O)O (stereo not drawn) , and I need its recorded TGI.
> 100 µM

I have this compound here, CC/C(C)=C1\CCC(CN2CCOCC2)C1=O (stereo not drawn) , and I need its recorded TGI.
21.7 µM

I have this compound here, NC1(C(=O)NC2(C(=O)O)CCCC2)CCCC1 (H-[Ac5c]-[Ac5c]-OH) , and I need its recorded TGI.
> 100 µM

I have this compound here, CCCCc1c2c(nc3c1CCC/C3=C\c1ccccc1)C(=O)CCC2 , and I need its recorded TGI.
47.4 µM

I have this compound here, CN(C)C=C1C(=O)c2c(Br)sc(Br)c2C1=O , and I need its recorded TGI.
> 100 µM

I have this compound here, O=C1CC(NC(=O)C(F)(F)F)c2c1csc2Br (stereo not drawn) , and I need its recorded TGI.
> 100 µM

I have this compound here, COc1ccc2cc(CNCCCCCCCCCCCCNCc3ccc4cc(OC)ccc4c3)ccc2c1 , and I need its recorded TGI.
46.9 µM

I have this compound here, COc1cc(C2SCC(=O)N2c2ccccc2Cl)cc(OC)c1OC (stereo not drawn) , and I need its recorded TGI.
> 100 µM

I have this compound here, CO[C@H]1c2cccc3cccc(c23)[C@@H]1n1[nH]c(=O)n(C(C)(C)C)c1=O , and I need its recorded TGI.
> 100 µM

I have this compound here, O=S(=O)(NC1=NCCN1C(=S)SN1CCn2c1nsc2=S)c1ccc(Br)cc1 , and I need its recorded TGI.
> 100 µM

I have this compound here, COc1ccc(/C=C2\CCC(CNc3cc(C)on3)C2=O)cc1 (stereo not drawn) , and I need its recorded TGI.
> 100 µM

I have this compound here, C=CC1(C(=O)O)CCC(C(C)(C)C)CC1 (stereo not drawn) , and I need its recorded TGI.
> 100 µM

Data origin, for the record: PubChem BioAssay (NCI)
